Biological target: human P2X2/3 receptors (Homo sapiens, UniProt P56373+Q9UBL9)
Construct: expressed in transfected cells; host or cells: human astrocytoma 1321N1 (1312N1 [sic])
Sequence (P56373 1-397): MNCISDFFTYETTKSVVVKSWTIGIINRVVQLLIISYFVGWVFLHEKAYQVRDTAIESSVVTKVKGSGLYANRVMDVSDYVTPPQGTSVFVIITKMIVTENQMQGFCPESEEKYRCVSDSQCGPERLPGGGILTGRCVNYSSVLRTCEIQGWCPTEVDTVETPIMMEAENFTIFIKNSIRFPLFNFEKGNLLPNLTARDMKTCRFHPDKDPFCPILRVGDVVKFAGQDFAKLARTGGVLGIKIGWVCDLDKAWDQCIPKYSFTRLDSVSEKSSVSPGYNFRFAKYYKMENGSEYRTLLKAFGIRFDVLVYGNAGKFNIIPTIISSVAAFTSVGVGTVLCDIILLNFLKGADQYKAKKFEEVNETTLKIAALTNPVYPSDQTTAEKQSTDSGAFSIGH
Sequence (Q9UBL9 1-471): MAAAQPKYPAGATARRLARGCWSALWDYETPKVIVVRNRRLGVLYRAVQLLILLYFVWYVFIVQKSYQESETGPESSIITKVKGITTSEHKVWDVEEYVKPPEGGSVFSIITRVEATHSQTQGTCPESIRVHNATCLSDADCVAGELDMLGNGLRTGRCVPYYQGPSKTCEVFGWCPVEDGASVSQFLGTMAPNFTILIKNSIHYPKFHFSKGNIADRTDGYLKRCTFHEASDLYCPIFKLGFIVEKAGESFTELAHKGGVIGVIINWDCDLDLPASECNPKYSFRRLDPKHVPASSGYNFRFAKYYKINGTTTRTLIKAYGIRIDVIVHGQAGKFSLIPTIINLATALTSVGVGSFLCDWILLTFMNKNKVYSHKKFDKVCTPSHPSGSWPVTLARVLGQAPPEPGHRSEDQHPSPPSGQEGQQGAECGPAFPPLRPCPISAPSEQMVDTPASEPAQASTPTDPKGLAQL
Test: Intracellular calcium measurement, antagonist activity at human P2X2/3 receptors (hP2X23 1321N1), Fluo8
Format: cell-based
Conditions: column 4); 1321N1 cells, human P2X2/3, Fluo8, agonist ATP at EC50; read-out: 4) hP2X2/3 IC50 [nM] (1321N1)
measured_metric: IC50 (nM)

CC(C)N1Cc2c(n(CC(=O)Nc3ccc(F)cn3)c3cc(C4CNC4)nn3c2=O)C1=O.Cl; 7900
CC(C)N1Cc2c(n(CC(=O)Nc3ccc(F)cn3)c3cc(CC4CCOCC4)nn3c2=O)C1=O; 8800

* * *

Target: human P2X2/3 receptors (Homo sapiens, UniProt P56373+Q9UBL9)
Construct: expressed in transfected cells; host or cells: human astrocytoma 1321N1 (1312N1 [sic])
Sequence (P56373 1-397): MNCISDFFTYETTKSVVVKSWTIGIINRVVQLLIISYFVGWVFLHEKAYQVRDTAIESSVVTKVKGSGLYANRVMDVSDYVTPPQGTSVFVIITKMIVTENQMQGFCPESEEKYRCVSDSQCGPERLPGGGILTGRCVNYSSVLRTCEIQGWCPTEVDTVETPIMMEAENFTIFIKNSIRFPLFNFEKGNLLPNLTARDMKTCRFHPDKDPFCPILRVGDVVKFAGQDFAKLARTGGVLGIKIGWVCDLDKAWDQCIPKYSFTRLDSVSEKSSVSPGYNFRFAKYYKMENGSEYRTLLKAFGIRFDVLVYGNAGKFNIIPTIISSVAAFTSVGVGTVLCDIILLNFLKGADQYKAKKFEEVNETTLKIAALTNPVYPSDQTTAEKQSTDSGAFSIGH
Sequence (Q9UBL9 1-471): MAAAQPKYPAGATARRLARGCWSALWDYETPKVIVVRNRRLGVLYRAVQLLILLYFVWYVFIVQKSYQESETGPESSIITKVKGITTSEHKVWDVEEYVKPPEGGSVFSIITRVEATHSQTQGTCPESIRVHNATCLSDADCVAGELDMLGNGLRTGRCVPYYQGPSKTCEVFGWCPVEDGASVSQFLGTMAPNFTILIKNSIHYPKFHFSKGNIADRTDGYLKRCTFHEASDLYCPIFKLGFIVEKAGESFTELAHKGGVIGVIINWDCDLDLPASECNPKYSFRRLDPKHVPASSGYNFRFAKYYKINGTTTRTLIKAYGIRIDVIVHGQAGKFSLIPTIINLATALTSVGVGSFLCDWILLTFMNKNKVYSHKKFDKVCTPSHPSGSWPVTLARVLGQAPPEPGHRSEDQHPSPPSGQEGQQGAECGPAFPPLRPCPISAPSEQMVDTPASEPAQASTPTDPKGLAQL
Assay: Intracellular calcium measurement, antagonist activity at human P2X2/3 receptors (hP2X23 1321N1), Fluo8
Assay type: cell-based
Conditions: column 4); 1321N1 cells, human P2X2/3, Fluo8, agonist ATP at EC50; read-out: 4) hP2X2/3 IC50 [nM] (1321N1)
measured_metric: IC50

Worked examples, 5 compounds total:
O=C(Cn1c2c(c(=O)n3nc(Cl)cc13)CN(CCN1CCOCC1)C2=O)Nc1ccc(F)cn1 [Example 105]; > 32000 nM
CC(C)N1Cc2c(n(CC(=O)Nc3ccc(F)cn3)c3cc(C4CCC(=O)N4C)nn3c2=O)C1=O (racemic) [Example 231]; > 23500 nM
CC(C)N1Cc2c(n(CC(=O)Nc3ccc(F)cn3)c3cc(CO)nn3c2=O)C1=O [Example 72]; > 32000 nM
COC[C@@H](C)N1Cc2c(n(CC(=O)Nc3ccc(F)cn3)c3cc(C)nn3c2=O)C1=O [Example 52]; > 23000 nM
COCC(C)N1Cc2c(n(CC(=O)Nc3ccc(F)cn3)c3cc(C(C)(C)C)nn3c2=O)C1=O (centres unmarked) [Example 25]; 7150 nM

Report IC50 for CC[C@H](C)N1Cc2c(n(CC(=O)Nc3ccc(C)cn3)c3cc(C(F)(F)F)nn3c2=O)C1=O [Example 21] tested on human P2X2/3 receptors (Homo sapiens, UniProt P56373+Q9UBL9). 12400 nM

Report IC50 for Cc1cc(-c2cc3n(CC(=O)Nc4ccc(F)cn4)c4c(c(=O)n3n2)CN(C(C)C)C4=O)c(C)cn1 [Example 159] tested on human P2X2/3 receptors (Homo sapiens, UniProt P56373+Q9UBL9). 1800 nM

Report IC50 for CC(C)N1Cc2c(n(CC(=O)Nc3ccc(F)cn3)c3cc(NCC4CC4)nn3c2=O)C1=O [Example 175] tested on human P2X2/3 receptors (Homo sapiens, UniProt P56373+Q9UBL9). 6950 nM

Report IC50 for CC[C@H](C)N1Cc2c(n(CC(=O)Nc3ccc(F)cn3)c3cc(C)nn3c2=O)C1=O [Example 53] tested on human P2X2/3 receptors (Homo sapiens, UniProt P56373+Q9UBL9). > 22000 nM

Report IC50 for COC[C@H](C)N1Cc2c(n(CC(=O)Nc3ccc(F)cn3)c3cc(C(F)(F)F)nn3c2=O)C1=O [Example 37] tested on human P2X2/3 receptors (Homo sapiens, UniProt P56373+Q9UBL9). > 32000 nM

Report IC50 for CC(C)N1Cc2c(n(CC(=O)Nc3ccc(F)cn3)c3cc(C(=O)N(C)C)nn3c2=O)C1=O [Example 182] tested on human P2X2/3 receptors (Homo sapiens, UniProt P56373+Q9UBL9). > 32000 nM
